- Assay Overview: Indirect ELISA on microplates coated with BSA-PFOA conjugate
- Assay type: binding
- Conditions: indirect ELISA, various antibody dilutions

{"columns": ["Molecule", "binding affinity to BSA-PFOA"],
 "data": [
  ["mAB5: rabbit anti-PFOA monoclonal antibody, heavy chain variable SEQ ID NO: 19, light chain variable SEQ ID NO: 24 (antibody, listed as Oryctolagus cuniculus, V domains shown) VH: QSVKESEGGLFKPTDTLTLTCTASGFSLSSYGVIWVRQAPGKGLQWIGFINIYGTPSYASWAMGRSTITGNTNLNTVILKMTSLTVADTATYFCASSVGSDGYLYSSDIWGPGTLVTVSS VL: DPVLTQTPSSVSAAVGGTVTINCQASQSVYNNKCLAWYQQKPGQPPKLLIYGASTLASGVPSRFSGSGSGTQFTLTISDLECDDAATYYCAGGYYSEIHFGGGTEVVVKG", "best binding affinity"],
  ["mAB3: rabbit anti-PFOA monoclonal antibody, heavy chain variable SEQ ID NO: 17, light chain variable SEQ ID NO: 22 (antibody, listed as Oryctolagus cuniculus, V domains shown) VH: QSLEESEGGLFKPGGTLTLTCTVSGFSLNIYSISWVRQAPGKELEWIGTMSNVDATYYANWAKSRSTITRNINESTVTLKMPSLTVADTATYFCARYIYGAGYDIWGPGTLVTVSS VL: ADIVMTQTPASVEAAVGGTVTIKCQASQSISSWLSWYQQKPGQPPKLLIYKASTLASGVPSRFKGSGSGTEYTLTISGVQCADAATYYCQSVYYSSSTNYGNTFGGGTEVVVKG", "best binding affinity"]
]}
